Answer each item with its documented GI50.
test system: OVCAR-5; assay: NCI tumour cell line growth inhibition, 48 h
Active and inactive are the calls of the source. No stated cut-off is given here; in the data, active = GI50 up to about 1.1 µM and inactive = higher.

Any idea what GI50 came out for CC1(C)OC(=O)N(c2ccccc2)C12C=Cc1cc([N+](=O)[O-])ccc1O2 (stereo not given) on OVCAR-5? 26.9 µM (inactive)

Short answer please: GI50, OVCAR-5, entry C[C@H]1S[C@H](c2c(Cl)cccc2Cl)N2Cc3ccccc3N=C12 12 µM (inactive)

Param readout = GI50; param system = OVCAR-5; param query = CCOC(=O)c1cccc(=O)c(C(=O)OCC)c1 ; response: value > 100 µM (inactive)

Missing value: GI50, OVCAR-5, entry CC(C)OC(=O)C1=C2c3ncccc3C(=O)N2[C@@H](Cl)[C@@H](Cl)[C@@H]1Cl . Fill in? > 100 µM (inactive)

Request - read-out GI50 | tested on OVCAR-5 | compound C1=NN2C(c3ccccc3)=NOC2C2C(c3ccccc3)=NOC12 (stereo not given) > 100 µM (inactive)

Please state recorded GI50 (tested on OVCAR-5) of Cc1cccc(CNNC(=O)c2cc[n+]([BH2-]C#N)cc2)c1 37.5 µM (inactive)

Tell me reported GI50 for CC(C)(C)OC(=O)NC(Cc1c[nH]cn1)C(=O)N1CCCC1C(N)=O (stereo not given) , tested with OVCAR-5. > 100 µM (inactive)

Look up GI50 with OVCAR-5 for this compound: N/C(=N\c1ccc(Cl)cc1)NS(=O)(=O)c1cc(Cl)c(Oc2ccc([N+](=O)[O-])cc2Cl)c(Cl)c1 19.7 µM (inactive)

Hi! What's the reported GI50 for CN(C)/C=N/c1cc(=O)n(C)c(=O)n1C on OVCAR-5? > 100 µM (inactive)

Can you look up GI50 on OVCAR-5 for CCC1(c2ccc(N3C(=O)c4cc(OC)c(OC)cc4C3=O)cc2)CCC(=O)NC1=O (stereo not given) ? > 10 µM (inactive)

* * *

test system: HOP-92; test: NCI tumour cell line growth inhibition, 48 h
The source made the active and inactive calls. Rule as the data show it: active = GI50 up to about 1.1 µM and inactive = higher.
Form entry, call: pick from active, inactive

Test call for this molecule, please: CO/N=C(\C)c1ccc(Nc2c3ccccc3nc3occc23)cc1 inactive

Give the logged outcome of this assay for the following molecule: COC(=O)[C@@]12CN(C)[C@@H](C(C)(C)C)N1C(=O)OC2c1ccccc1 (stereo partly specified) inactive

Would you mind telling me which call this test gave Cc1ccc(S(=O)(=O)N2CCC2c2ccccc2)cc1 (stereo unspecified) ? inactive

Assay outcome for O=C(Nc1cccc2ccccc12)Oc1ccccc1C1CCCCC1 : what was it? inactive

Name the outcome recorded for CCOc1cc(C(c2c(O)c3ccccc3oc2=O)c2c(O)c3ccccc3oc2=O)ccc1OC in the assay. inactive

For this molecule, state the assay outcome: COc1cc2nc(-c3ccccc3)cc(O)c2cc1OC inactive

Field: outcome | Entry: N#Cc1c(N)n(-c2cccc(C(=O)O)c2)c(=O)c2cc([N+](=O)[O-])ccc12 inactive

Per the assay record, what outcome was assigned to C#CC[N+](CCO)(CCO)CCCCCCCCCCCCCCCCCC ? inactive

Test call for this molecule, please: O=c1c2cccnc2oc2c(Cl)cc(-c3nnn[nH]3)cc12 inactive

What was the test verdict on Cc1cc(NC(=O)NC(=O)c2ccccc2N)ccc1Oc1ncc(Br)cn1 ? active

Fill in: this test's call for Cn1c2ccccc2n2c3nc4ccccc4nc3c(C#N)c12 is ___ inactive

* * *

Exercise: state measured GI50 for each of the molecules provided.
test system: SF-539; assay: NCI tumour cell line growth inhibition, 48 h
Calls of active or inactive are those of the source. No stated cut-off is given here; in the data, active = GI50 up to about 1.1 µM and inactive = higher.

Value lookup for GI50; key = Cc1ccc(C)c2c1CCc1cc3ccccc3nc1-2 > 100 µM (inactive)

So what does the record say about GI50 for CC(=O)OC/C=C(/CCl)CCC(Br)C(C)(C)Br.CC(=O)OC/C=C(\CCl)CCC(Br)C(C)(C)Br (stereo not given) ? > 10 µM (inactive)

Any idea what GI50 was measured for C=C(C)C12CC3CC(/C(=N/O)C(C1)/C3=N\O)[C@@]2(C)O (stereo not given in full) ? > 100 µM (inactive)

Entry NC(=O)CCC(NC(=O)Cc1ccccc1)C(=O)O.NC(CCC(=O)NC(=O)Cc1ccccc1)C(=O)O (stereo not given) has what GI50? > 8130 µM (inactive)

Query (molecule): COc1cc(/C=C/C(=O)CC(=O)/C=C/c2cc(OC)c(O)c(OC)c2)cc(OC)c1O ; field requested: GI50 8.77 µM (inactive)

* * *

test system: NCI-H23; test: NCI tumour cell line growth inhibition, 48 h
Activity calls are given as the source filed them. Cut-off read from the data, not from the text of the source: active = GI50 up to about 1.1 µM and inactive = higher.
Respond using exactly one of the listed classes: 1 (active), 0 (inactive)

What is the recorded call for this molecule in the test? COC(=O)C1=C(C)NC(C)=C(C(=O)OC)C1c1nc2sccn2c1[N+](=O)[O-] 0

Name the outcome recorded for CC(NC1=NCCO1)c1cccs1 (stereo not given) in the assay. 0

Check the results log: what was the call for CN(C(=O)Cc1ccc(Cl)c(Cl)c1)[C@H]1CCCC[C@@H]1[N+]1(C)CCCC1 ? 0

Please indicate how the test categorized CC(C)(NC1=NCCO1)c1ccccc1 . 0

State the result this test recorded for Nc1ncnc2c1nc(O)n2-c1ccccc1 . 0

What is the recorded call for this molecule in the test? O=C(NC(O)(C(F)(F)F)C(F)(F)F)c1ccccc1 0

Could you please tell me the result logged for COC1/C=C/C(C)C(O)CC(O)/C=C/C(C)C(C(C)C(OC)C(C)CCC(=O)C(C)C(C/C=C/N(C)C=O)OC)OC(=O)/C=C/C=C(\C)CC(OC)CC2=CC(=O)O[C@@H](C(C)C(OC)C1)[C@H]2O (stereo not given in full) in this assay? 1

Any idea what this test logged for c1ccc(C2SCc3nc4ccccc4n32)cc1 (stereo not given) ? 0

For Cn1c(=O)c2nc(N3CCCCC3)cnc2n(C)c1=O , which call appears in the assay record? 0

Entry O=C1CCCC2=C1CC1=C(CCCC1=O)N2c1ccc(Cl)cc1 : call = ? 0

* * *

tested on: A498; assay: NCI tumour cell line growth inhibition, 48 h
Activity calls are given as the source filed them. No stated cut-off is given here; in the data, active = GI50 up to about 1.1 µM and inactive = higher.
Hi! Could you answer with just one of these? True = active, False = inactive

Can you look up the reported call for O=C(O)C1OC(n2cc(F)c(=O)[nH]c2=O)CC1O (stereo unspecified) for me? False

So what was the verdict on CCOC(=O)/C(=C\Nc1c(C)n(C)n(-c2ccccc2)c1=O)C(=O)c1ccccc1 in this test? False

Outcome? S=C(N/N=C\C=N/NC(=S)N1CCCCCC1)N1CCCCCC1 False

I'd appreciate the recorded outcome for CC1=NN(C(=O)CSc2nnc(SCC(=O)N3N=C(C)CC3(O)c3ccccc3)s2)C(O)(c2ccccc2)C1 (stereo unspecified) from this test. False

Any idea what this test logged for Cn1c2ccccc2n2c3nc4ccccc4nc3c(C#N)c12 ? False

Outcome? CC12Cc3cc4c(cc3C1(c1ccc([N+](=O)[O-])cc1)OCCO2)OCO4 (stereo unspecified) False

Please share the test call associated with N#CC(C#N)[C@@H]1CCC=C(Sc2ccccc2)[C@H]1Sc1ccccc1 . False

Recorded test outcome, item COC(=O)CC(=O)Nc1sccc1S(=O)(=O)c1ccccc1 False

Returns: the outcome recorded for COC(=O)[C@H]1NC(=O)CCSSC1(C)C in this assay. False

For O=C(O)c1nc2ccccc2nc1Nc1ccc(F)cc1 , which call appears in the assay record? False

Record request — test call for C/C(=N\NC(=S)NCCCNC(=S)N/N=C(\C)c1ccccn1)c1ccccn1 False

What outcome does the record of this test show for COC(=O)[C@H](Cc1ccccc1)NC(=O)c1ccc(CNC(=O)/C=C/c2ccc(-c3ccccc3)cc2)cc1 ? False

Given CCC1OC2C(CC=C(C)C)=C3OC(C)(O)C(C)(CC)C(OC(=O)c4ccccc4)C3=C3OC(=O)C=C1C32 (stereo unspecified) , state the outcome it received in this test. False

Dear all, I need the recorded test outcome for CC(=O)OC1C(O)C(C)OC(OC(=O)C2CCC3C(C2)OC2(CC(OC(=O)/C=C/c4ccccc4)C(C)CO2)C32CO2)C1OC1OC(C)C(O)C(O)C1O (stereo unspecified) , thank you. True

Could you please tell me the result logged for COc1ccc(OC)c(N(CN2C(=O)CCC2C(=O)O)C(C)=O)c1 (stereo unspecified) in this assay? False

# lookup: test call for NC(CSC1(c2ccc(Cl)cc2)c2ccccc2-c2ccccc21)C(=O)O (stereo unspecified) False

What did the test return for Nc1nc(S)c2c(N)n[nH]c2c1C(=O)Nc1ccc(Cl)cc1 ? False

Tell me the assay call for COc1cc(C2SCC(=O)N2c2ccccc2Cl)cc(OC)c1OC (stereo unspecified) please. False

Identify the outcome logged in this assay for the compound shown: O=C(/C=C/c1c(O)ccc2ccccc12)c1ccc([N+](=O)[O-])cc1 False

Call for entry Cc1ccc(NC2=CC(=O)C(NO)c3ccccc32)cc1 (stereo unspecified) : False

Hi, do you know how COc1cc(/C=C2\N=C(c3ccccc3)N(c3nc4c(OC)ccc(OC)c4s3)C2=O)cc(OC)c1OC came out in this test? False

The measurements presented in this section are drawn from ChEMBL document CHEMBL1201862.
